test: Plasma stability, human plasma; conditions: human plasma, 37° C., timepoint 0 h
Bridge positions count the residues as written; N and C are the ends. Peptide text beside a SMILES is read from it.
endpoint: Tube 3 (compound concentration)
Lab note: jot the number down without any unit.

[[record]]
molecule = "CC(=O)N[C@@H](CO)C(=O)N[C@@H](CCCNC(=N)N)C(=O)N[C@@H](CC(C)C)C(=O)N[C@@H](CCC(=O)O)C(=O)N[C@H]1CCC(=O)NCCCC[C@@H](C(=O)N[C@@H](CCCNC(=N)N)C(=O)N[C@@H](CC(C)C)C(=O)N[C@H](C(=O)N[C@@H](CCC(=O)O)C(N)=O)[C@@H](C)O)NC(=O)[C@H](CCCNC(=N)N)NC(=O)[C@H](CC(C)C)NC(=O)[C@H](CCC(=O)O)NC1=O [SD15194] (Ac-SRLEEELRKRLTE-NH2; lactam 5-9)"
endpoint = "Tube 3 (compound concentration)"
obs_value = 2.302

[[record]]
molecule = "CC(=O)N[C@@H](CO)C(=O)N[C@@H](CCCNC(=N)N)C(=O)N[C@@H](CC(C)C)C(=O)N[C@@H](CCC(=O)O)C(=O)N[C@H]1CC(=O)NCCCC[C@@H](C(=O)N[C@@H](CCCNC(=N)N)C(=O)N[C@@H](CC(C)C)C(=O)N[C@H](C(=O)N[C@@H](CCC(=O)O)C(N)=O)[C@@H](C)O)NC(=O)[C@H](CCCNC(=N)N)NC(=O)[C@H](CC(C)C)NC(=O)[C@H](CCC(=O)O)NC1=O [SD15196] (Ac-SRLEDELRKRLTE-NH2; lactam 5-9)"
endpoint = "Tube 3 (compound concentration)"
obs_value = 2.518


Input: Would you kindly share the measured Tube 3 (compound concentration) for CC(=O)N[C@@H](CO)C(=O)N[C@@H](CCCNC(=N)N)C(=O)N[C@@H](CC(C)C)C(=O)N[C@@H](CCC(=O)O)C(=O)N[C@H]1CCC(=O)NCCCC[C@@H](C(=O)N[C@@H](CCCNC(=N)N)C(=O)N[C@@H](CCCNC(=N)N)C(=O)N[C@@H](CC(C)C)C(=O)N[C@H](C(=O)N[C@@H](CCC(=O)O)C(N)=O)[C@@H](C)O)NC(=O)[C@H](CC(C)C)NC(=O)[C@H](CCC(=O)O)NC1=O [SD15192] (Ac-SRLEEELKRRLTE-NH2; lactam 5-8) ?
Output: 2.553

Input: Would you kindly share the measured Tube 3 (compound concentration) for CC(=O)N[C@@H](CO)C(=O)N[C@@H](CCCNC(=N)N)C(=O)N[C@@H](CC(C)C)C(=O)N[C@@H](CCC(=O)O)C(=O)N[C@@H](CCC(=O)O)C(=O)N[C@@H](CCC(=O)O)C(=O)N[C@@H](CC(C)C)C(=O)N[C@@H](CCCNC(=N)N)C(=O)N[C@H]1CCCCNC(=O)CC[C@@H](C(N)=O)NC(=O)[C@H]([C@@H](C)O)NC(=O)[C@H](CC(C)C)NC(=O)[C@H](CCCNC(=N)N)NC1=O [SD15193] (Ac-SRLEEELRKRLTE-NH2; lactam 9-13) ?
Output: 2.795

====

experiment: Plasma stability, mouse plasma; conditions: mouse plasma, 37° C., timepoint 6 h
Bridge positions count the residues as written; N and C are the ends. Peptide text beside a SMILES is read from it.
endpoint: Tube 1 (compound concentration)
Lab note: jot the number down without any unit.

Input: Would you kindly share the measured Tube 1 (compound concentration) for CC(=O)N[C@@H](CO)C(=O)N[C@@H](CCCNC(=N)N)C(=O)N[C@@H](CC(C)C)C(=O)N[C@@H](CCC(=O)O)C(=O)N[C@H]1CCC(=O)NCCCC[C@@H](C(=O)N[C@@H](CCCNC(=N)N)C(=O)N[C@@H](CC(C)C)C(=O)N[C@H](C(=O)N[C@@H](CCC(=O)O)C(N)=O)[C@@H](C)O)NC(=O)[C@H](CCCNC(=N)N)NC(=O)[C@H](CC(C)C)NC(=O)[C@H](CCC(=O)O)NC1=O [SD15194] (Ac-SRLEEELRKRLTE-NH2; lactam 5-9) ?
Output: 2.178

====

assay: Pharmacokinetic study in mouse, intravenous bolus, plasma LC-MS/MS, non-compartmental analysis; conditions: in vivo, iv, Cmax, normalized to a dose of 1 mg/kg, given 3 mg/kg i.v.
Bridge positions count the residues as written; N and C are the ends. Peptide text beside a SMILES is read from it.
endpoint: Cmax (ng/mL)
All answers are understood in ng/mL, so give the number only.

Input: Would you kindly share the measured Cmax for CC(=O)N1CCC[C@H]1C(=O)N[C@@H](CO)C(=O)N[C@@H](CCCNC(=N)N)C(=O)N[C@@H](CC(C)C)C(=O)N[C@@H](CCC(=O)O)C(=O)N[C@H]1CCC(=O)NCCCC[C@@H](C(=O)N[C@@H](CCCNC(=N)N)C(=O)N[C@@H](CC(C)C)C(=O)N[C@H](C(=O)N[C@@H](CCC(=O)O)C(N)=O)[C@@H](C)O)NC(=O)[C@H](CCCNC(=N)N)NC(=O)[C@H](CC(C)C)NC(=O)[C@H](CCC(=O)O)NC1=O [SD15341] (Ac-PSRLEEELRKRLTE-NH2; lactam 6-10) ?
Output: 4240

====

assay: Plasma stability, mouse plasma; details: mouse plasma, 37° C., timepoint 6 h
Bridge positions count the residues as written; N and C are the ends. Peptide text beside a SMILES is read from it.
endpoint: Tube 3 (compound concentration)

[[record]]
compound = "CC(=O)N[C@@H](CO)C(=O)N[C@@H](CCCNC(=N)N)C(=O)N[C@@H](CC(C)C)C(=O)N[C@@H](CCC(=O)O)C(=O)N[C@@H](CCC(=O)O)C(=O)N[C@@H](CCC(=O)O)C(=O)N[C@@H](CC(C)C)C(=O)N[C@@H](CCCNC(=N)N)C(=O)N[C@H]1CCCCNC(=O)CC[C@@H](C(N)=O)NC(=O)[C@H]([C@@H](C)O)NC(=O)[C@H](CC(C)C)NC(=O)[C@H](CCCNC(=N)N)NC1=O [SD15193] (Ac-SRLEEELRKRLTE-NH2; lactam 9-13)"
endpoint = "Tube 3 (compound concentration)"
obs_value = 2.346

[[record]]
compound = "CC(=O)N[C@@H](CO)C(=O)N[C@@H](CCCNC(=N)N)C(=O)N[C@@H](CC(C)C)C(=O)N[C@@H](CCC(=O)O)C(=O)N[C@H]1CCC(=O)NCCCC[C@@H](C(=O)N[C@@H](CCCNC(=N)N)C(=O)N[C@@H](CC(C)C)C(=O)N[C@H](C(=O)N[C@@H](CCC(=O)O)C(N)=O)[C@@H](C)O)NC(=O)[C@H](CCCNC(=N)N)NC(=O)[C@H](CC(C)C)NC(=O)[C@H](CCC(=O)O)NC1=O [SD15194] (Ac-SRLEEELRKRLTE-NH2; lactam 5-9)"
endpoint = "Tube 3 (compound concentration)"
obs_value = 2.154

[[record]]
compound = "CC(=O)N[C@@H](CO)C(=O)N[C@@H](CCCNC(=N)N)C(=O)N[C@@H](CC(C)C)C(=O)N[C@@H](CCC(=O)O)C(=O)N[C@H]1CC(=O)NCCCC[C@@H](C(=O)N[C@@H](CCCNC(=N)N)C(=O)N[C@@H](CC(C)C)C(=O)N[C@H](C(=O)N[C@@H](CCC(=O)O)C(N)=O)[C@@H](C)O)NC(=O)[C@H](CCCNC(=N)N)NC(=O)[C@H](CC(C)C)NC(=O)[C@H](CCC(=O)O)NC1=O [SD15196] (Ac-SRLEDELRKRLTE-NH2; lactam 5-9)"
endpoint = "Tube 3 (compound concentration)"
obs_value = 1.874


Then there is this compound:
Input: Would you kindly share the measured Tube 3 (compound concentration) for CC(=O)N[C@@H](CO)C(=O)N[C@@H](CCCNC(=N)N)C(=O)N[C@@H](CC(C)C)C(=O)N[C@@H](CCC(=O)O)C(=O)N[C@H]1CCC(=O)NCCCC[C@@H](C(=O)N[C@@H](CCCNC(=N)N)C(=O)N[C@@H](CCCNC(=N)N)C(=O)N[C@@H](CC(C)C)C(=O)N[C@H](C(=O)N[C@@H](CCC(=O)O)C(N)=O)[C@@H](C)O)NC(=O)[C@H](CC(C)C)NC(=O)[C@H](CCC(=O)O)NC1=O [SD15192] (Ac-SRLEEELKRRLTE-NH2; lactam 5-8) ?
Output: 1.791

====

assay: Plasma stability, human plasma; conditions: human plasma, 37° C., timepoint 6 h
Bridge positions count the residues as written; N and C are the ends. Peptide text beside a SMILES is read from it.
endpoint: Tube 3 (compound concentration)
Lab note: jot the number down without any unit.

Worked cases, Tube 3 (compound concentration) given:
[[record]]
compound = "CC(=O)N[C@@H](CO)C(=O)N[C@@H](CCCNC(=N)N)C(=O)N[C@@H](CC(C)C)C(=O)N[C@@H](CCC(=O)O)C(=O)N[C@H]1CCC(=O)NCCCC[C@@H](C(=O)N[C@@H](CCCNC(=N)N)C(=O)N[C@@H](CCCNC(=N)N)C(=O)N[C@@H](CC(C)C)C(=O)N[C@H](C(=O)N[C@@H](CCC(=O)O)C(N)=O)[C@@H](C)O)NC(=O)[C@H](CC(C)C)NC(=O)[C@H](CCC(=O)O)NC1=O [SD15192] (Ac-SRLEEELKRRLTE-NH2; lactam 5-8)"
obs_value = 0.883

[[record]]
compound = "CC(=O)N[C@@H](CO)C(=O)N[C@@H](CCCNC(=N)N)C(=O)N[C@@H](CC(C)C)C(=O)N[C@@H](CCC(=O)O)C(=O)N[C@@H](CCC(=O)O)C(=O)N[C@@H](CCC(=O)O)C(=O)N[C@@H](CC(C)C)C(=O)N[C@@H](CCCNC(=N)N)C(=O)N[C@H]1CCCCNC(=O)CC[C@@H](C(N)=O)NC(=O)[C@H]([C@@H](C)O)NC(=O)[C@H](CC(C)C)NC(=O)[C@H](CCCNC(=N)N)NC1=O [SD15193] (Ac-SRLEEELRKRLTE-NH2; lactam 9-13)"
obs_value = 2.527

[[record]]
compound = "CC(=O)N[C@@H](CO)C(=O)N[C@@H](CCCNC(=N)N)C(=O)N[C@@H](CC(C)C)C(=O)N[C@@H](CCC(=O)O)C(=O)N[C@H]1CC(=O)NCCCC[C@@H](C(=O)N[C@@H](CCCNC(=N)N)C(=O)N[C@@H](CC(C)C)C(=O)N[C@H](C(=O)N[C@@H](CCC(=O)O)C(N)=O)[C@@H](C)O)NC(=O)[C@H](CCCNC(=N)N)NC(=O)[C@H](CC(C)C)NC(=O)[C@H](CCC(=O)O)NC1=O [SD15196] (Ac-SRLEDELRKRLTE-NH2; lactam 5-9)"
obs_value = 1.545


Then there is this compound:
Input: Would you kindly share the measured Tube 3 (compound concentration) for CC(=O)N[C@@H](CO)C(=O)N[C@@H](CCCNC(=N)N)C(=O)N[C@@H](CC(C)C)C(=O)N[C@@H](CCC(=O)O)C(=O)N[C@H]1CCC(=O)NCCCC[C@@H](C(=O)N[C@@H](CCCNC(=N)N)C(=O)N[C@@H](CC(C)C)C(=O)N[C@H](C(=O)N[C@@H](CCC(=O)O)C(N)=O)[C@@H](C)O)NC(=O)[C@H](CCCNC(=N)N)NC(=O)[C@H](CC(C)C)NC(=O)[C@H](CCC(=O)O)NC1=O [SD15194] (Ac-SRLEEELRKRLTE-NH2; lactam 5-9) ?
Output: 2.041
